Test system: K562
Method description: NCI tumour cell line growth inhibition, 48 h
Active and inactive are the calls of the source. Rule as the data show it: active = GI50 up to about 1.1 µM and inactive = higher.
Form entry, call: pick from 1 = active, -1 = inactive

- Molecule: "C[C@]12CCC(=O)C=C1CC[C@@H]1[C@@H]2CC[C@]2(C)C(=O)/C(=C/c3ccc([N+](=O)[O-])cc3)C[C@@H]12"
  Label class: -1

What is the recorded call for this molecule in the test? O=[N+]([O-])c1ccc(OP(=O)(O)OCC2OC(CP(=O)(O)O)C(O)C2O)cc1 (centres undefined)
-1

Next record, please: `Cc1nc2cc(F)c(F)cc2[nH]c1=O`
-1

Next record, please: `CCOC(=O)/C=C(/CN1C(=O)c2ccccc2C1=O)c1ccccc1`
-1

Next record, please: `O=c1c(-c2ccccc2)c(SCCCN2CCCCC2)n(-c2ccccc2)c(=S)n1-c1ccccc1`
-1

Next record, please: `CNC(=O)C1(N)c2ccccc2C=Cc2ccccc21`
-1
